FYI, the data here is from the RNAGym collection of RNA variant scans (doi:10.7554/elife.80360).

B1: HDV Ribozyme (parent)
chain: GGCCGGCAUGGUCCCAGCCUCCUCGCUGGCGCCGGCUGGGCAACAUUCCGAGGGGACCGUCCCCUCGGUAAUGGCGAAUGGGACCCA

# Variants of: B1
# ASSAY_NAME: self-cleavage, relative activity (ratio to wild type); higher = more cleavage; co-transcriptional
ASSAY_METRIC: self-cleavage
Please give only the number in your answer, with no unit.

>  <RESIDUE_CODES>
GGCCGGCAUGGUCCCAGCCUCCUCGAUGGCGCCGGCUGGGCAACAUUCCGAGGGGACCGACCCCUCGGUAAUGGCGAAUGGGACCCA [C26A U60A]

>  <self-cleavage>
1.02

$$$$
>  <RESIDUE_CODES>
GGCCGGCAUGGUCCCAGCCUCCUCGCUGGCGCCGGCUGGGCAACUUUCCGAGGGGACCGUCCCCUGGGUAAUGGCGAAUGGGACCCA [A45U C66G]

>  <self-cleavage>
0.919

$$$$
>  <RESIDUE_CODES>
GGCCGGCAUGGUCCCAGCCACCUCGCUGGCGCCGACUGGGCAACAUUCCGAGGGGACCGUCCCCUCGGUAAUGGCGAAUGGGACCCA [U20A G35A]

>  <self-cleavage>
0.158

$$$$
>  <RESIDUE_CODES>
GGCCGGCAUGGCCCCAGCCUCCUCGCUGGCGCCGGCUGGACAACAUUCCGAGGGGACCGUCCCCUCGGUAAUGGCGAAUGGGACCCA [U12C G40A]

>  <self-cleavage>
0.305

$$$$

Read the next record carefully.
Please report self-cleavage for the following variant: GGCCGGCAUGGUCCCAGCCUACUCGCUGGCGCCGGCUGGGCAACAUUCCGAGGGGACCGUCCCCUCGGUAAUGGCGAACGGGACCCA [C21A U79C] 0.111
